Reference source for all entries: PubChem BioAssay (NCI)

Can you tell me growth inhibition for the items I'm about to list?
test_protocol: NCI Yeast Anticancer Drug Screen. Data for the bub3 strain (AID 167)
condition_details: S. cerevisiae bub3 mutant strain, at 1.2 µM, stronger effect = higher value
The panel holds about 79,000 compounds, 15% with a hit somewhere; the sample as a whole holds those more often.
Just the number please, in %, no unit attached.

The reported value for CCCCCCCCCCCCCCCCCC(=O)NCCCN(C)C in terms of growth inhibition is 4

The reported value for Cc1cc(=O)oc2c(C)c3occc(=O)c3cc12 in terms of growth inhibition is -1

The reported value for O=C1C=C(Cl)C(=O)N1c1cccc(Cl)c1 in terms of growth inhibition is 55

The reported value for Nc1n[n+]([O-])c2ccc(Cl)cc2[n+]1[O-] in terms of growth inhibition is 0

The reported value for S=c1[nH]c2cc3ccccc3cc2[nH]1 in terms of growth inhibition is -7

The reported value for CCOC(=O)CC1(C(=O)OCC)c2[nH]c3ccccc3c2CCN1Cc1ccccc1 (stereo unspecified) in terms of growth inhibition is -3

The reported value for OC1(c2ccccc2)CCCc2ccc(Cl)cc21 (stereo unspecified) in terms of growth inhibition is -2

The reported value for CCOc1ccc(NC(=O)C2=C(C)NC(C)=C(C(=O)Nc3ccc(OCC)cc3)C2c2cccc([N+](=O)[O-])c2)cc1 in terms of growth inhibition is -3

The reported value for NNC(=O)CCc1cc2ccccc2c2ccccc12 in terms of growth inhibition is -7

The reported value for CSc1nc(C)c(CCOC(C)=O)c(N=P(c2ccccc2)(c2ccccc2)c2ccccc2)n1 in terms of growth inhibition is 4

The reported value for CCOC1Oc2ccccc2-c2nc(N)ncc21 (stereo unspecified) in terms of growth inhibition is 4
